TARGET_SYSTEM: KRas G12D mutant (Homo sapiens, UniProt P01116, G12D)
Construct: fused on or other part: His tag, used for capture on nickel-coated plates
ASSAY_NOTES: Ras GTP binding domain inhibition assay (Cy3-GTP/Cy5-GTP competition)
MEASUREMENT_CONDITIONS: 20 μM; without SOS; read-out: KRas G12D mutant: % inh.
Listing: inhibition at 20 µM of selected compounds

// known answers, use as guide
COCCNc1nc(-c2nccn2C)nc2sc(-c3ccccc3Cl)c(-c3ccc(OC)cc3)c12 [drawing 876] : 26 to 50%
COc1ccc(-c2c(-c3ccn(C)n3)sc3nc(-c4nccn4C)nc(N4CCC(OC)C4)c23)cc1 (centres unmarked) [drawing 868] : 0%
COCC(C)Nc1nc(-c2nccn2C)nc2sc(-c3ccn(C)n3)c(-c3ccc(OC)cc3)c12 (centres unmarked) [drawing 869] : 0%
O=C(NC1CCC1)c1nc(-c2ccccn2)nc(O)c1O [drawing 809] : 51 to 75%
COC1CCN(c2nc(-c3nccn3C)nc3sc(-c4ccccc4CO)c(-c4ccccc4)c23)C1.Cl (centres unmarked) : 51 to 75%
CO[C@@H]1CCC(Nc2nc(-c3nccn3C)nc3sc(-c4ccn(C)n4)c(-c4ccccc4)c23)C1 (some centres unmarked) [drawing 859] : 26 to 50%

Reported inhibition at 20 µM for O=C(c1nc(-c2ccccn2)nc(O)c1O)N1CCCC1 [drawing 831] was 51 to 75%

Reported inhibition at 20 µM for Cn1ccc(-c2sc3nc(-c4nccn4C)nc(NCC4CCOC4)c3c2-c2ccccc2)n1 (centres unmarked) [drawing 861] was 26 to 50%

----------
TARGET_SYSTEM: Rho-A (Homo sapiens)
ASSAY_NOTES: Ras GTP binding domain inhibition assay (Cy3-GTP/Cy5-GTP competition)
MEASUREMENT_CONDITIONS: with SOS, read-out: Rho-A + SOS: % inh.
Listing: inhibition at 20 µM of selected compounds

// known answers, use as guide
O=C(NC1CCCC1)c1nc(-c2ccccn2)nc(O)c1O [drawing 947] : 51 to 75%
COC1CCN(c2nc(-c3nccn3C)nn3cc(-c4ccccc4)c(-c4ccccc4)c23)C1 (centres unmarked) [drawing 931] : 26 to 50%
COc1ccc(-c2sc3nc(-c4nccn4C)nc(N4CCC(OC)C4)c3c2-c2ccccc2)cn1 (centres unmarked) [drawing 971] : 26 to 50%
Oc1nc(-c2ncc3ccccn23)nc2c(-c3ccccn3)csc12 [drawing 969] : 76 to 100%
CO[C@H]1C[C@@H](Nc2nc(-c3nccn3C)nc3sc(-c4ccn(C)n4)c(C)c23)C1 [drawing 1049] : 76 to 100%

Reported inhibition at 20 µM for Cc1c(-c2ccn(C)n2)sc2nc(-c3nccn3C)nc(NCCOC(=O)N(C)C)c12 [drawing 1053] was 51 to 75%

Reported inhibition at 20 µM for Cc1cc(Cn2ccnc2-c2nc(O)c3scc(-c4ccccn4)c3n2)on1 [drawing 981] was 26 to 50%

Reported inhibition at 20 µM for CC(C)CNC(=O)c1nc(-c2ccccn2)nc(O)c1O [drawing 946] was 51 to 75%

----------
System: KRas wild type
ASSAY_NOTES: Ras GTP binding domain inhibition assay (Cy3-GTP/Cy5-GTP competition)
Set-up: species or system human
MEASUREMENT_CONDITIONS: 20 μM; with SOS
ASSAY_READOUT: KRas wild type + SOS: % inh.

Reported KRas wild type + SOS: % inh. for COc1nc(-c2ccccn2)nc(Nc2cnn(C)c2)c1OC [drawing 794] was 0 (0% inhibition)
